# Method Description: viability loss in HepG2 hepatoma cells – cell-based, plate reader, dry powder, set 3, cytotoxicity control, dose response (AID 720714)
# Condition Context: HepG2 cytotoxicity, plate reader; at 26 µM (top of the series)
Lab note - cut at 30% for activity change, negative = cytotoxicity: rule met if strictly below, rule not met if not.

A record lists "Cc1cc2c(cc(C(=O)N3CCC(C(=O)NC4CCCC4)CC3)n2Cc2c(F)cccc2Cl)o1" . Is its activity change, negative = cytotoxicity below 30%?
rule not met

# strict comparison: is reported activity change, negative = cytotoxicity < 30%? input = "CN(C)S(=O)(=O)c1cccc(NC(=O)c2cccc(S(=O)(=O)N3CCc4ccccc43)c2)c1"
rule met

Is it true that activity change, negative = cytotoxicity reported for "CCOC(=O)C1CCN(C(=O)c2ccc(OCC(=O)Nc3cccc(C(F)(F)F)c3)c(OC)c2)CC1" is less than 30%?
rule met

Dear colleague, could you confirm whether activity change, negative = cytotoxicity of "CC(C)[C@H](NC(=O)OC(C)(C)C)c1nnc(S(=O)(=O)Cc2c(F)cccc2Cl)o1" falls below 30%? Thanks.
rule met

Is 30% strictly greater than the compound's reported activity change, negative = cytotoxicity? compound: "CC(=O)Nc1cccc(NC(=O)CSc2ncc(-c3ccc(Cl)cc3)n2Cc2ccco2)c1"
rule met

Determine if "COc1ccc(NS(=O)(=O)c2ccc(C(=O)N3CCCCCC3)cc2)cc1" shows activity change, negative = cytotoxicity strictly lower than 30%.
rule not met

Please state whether activity change, negative = cytotoxicity is below 30% for "Cc1cc(N2CCCC2=O)cc(C)c1S(=O)(=O)NCCOc1ccc(C(C)(C)C)cc1"
rule met

Please determine if "CCCc1nnc(NC(=O)c2nc(S(=O)(=O)Cc3ccc(C)cc3)ncc2Cl)s1" is below 30% in terms of activity change, negative = cytotoxicity.
rule met

Quick check: activity change, negative = cytotoxicity of "CC(=O)N1CCN(C(=O)CCc2cc(C(C)(C)C)c(O)c(C(C)(C)C)c2)CC1" under 30%?
rule not met

###

# Method Description: viability loss in HepG2 hepatoma cells – cell-based, plate reader, dry powder, set 3, cytotoxicity control, dose response (AID 720714)
# Condition Context: HepG2 cytotoxicity, plate reader; at 26 µM (top of the series)
Field: activity change, negative = cytotoxicity. Provide a value for each of the compounds that follow.
Reply numerically in %, unit not repeated.

Please supply the value of reported activity change, negative = cytotoxicity for the item "COc1ccccc1N1CCN(c2ncc(C(=O)N3CCN(c4cccc(Cl)c4)CC3)c3ccccc23)CC1"
111

For the compound "Fc1ccc(-n2nnnc2-c2cnc(-c3cccs3)nc2C(F)(F)F)cc1" , give its reported activity change, negative = cytotoxicity.
23.6

Assign activity change, negative = cytotoxicity to the following record: "Nc1nonc1C(=O)NCCNCc1cc(Br)ccc1OCc1ccc(F)cc1"
-54.9

Supply recorded activity change, negative = cytotoxicity for "COc1cc2ncnc(N[C@H](C)c3ccccc3)c2cc1OC" here.
45.6

Dear colleague, please send me the reported activity change, negative = cytotoxicity for O=c1c2ccccc2nc2n1C(CSCc1ccc(Cl)cc1Cl)CS2 (stereo not given) when you can.
-17.2

Provide measured activity change, negative = cytotoxicity value, entry: "COc1ccc2c(c1)c(CC(=O)Nc1cc(C)ccc1C)c(C)n2C(=O)c1ccc(Cl)cc1"
8.4

Specify activity change, negative = cytotoxicity for "CN(C(=O)COc1ccccc1C(=O)NCCOc1ccccc1)c1ccccc1" and stop.
-26.1

Name the recorded activity change, negative = cytotoxicity of the compound listed here: CCCOc1ccccc1C1CC(=O)Nc2cc3c(cc21)OCO3 (stereo not given)
73.2

Tell me measured activity change, negative = cytotoxicity for "COc1ccc(Nc2nc(N3CCCCC3)c3ccccc3n2)cc1" please.
-24.8

Read the entry Cc1ccc2cc(CN(CC3CCCO3)C(=O)NC3CCCCC3)c(=O)[nH]c2c1C (stereo not given) and write its reported activity change, negative = cytotoxicity.
64.3

###

# Method Description: viability loss in HepG2 hepatoma cells – cell-based, plate reader, dry powder, set 3, cytotoxicity control, dose response (AID 720714)
# Condition Context: HepG2 cytotoxicity, plate reader; at 26 µM (top of the series)
Metric Name: activity change, negative = cytotoxicity (%)
// note: answer is a bare numeric in %

Answer with reported activity change, negative = cytotoxicity of "O=C1CSc2ccc(C(=O)Nc3cccc(S(=O)(=O)Nc4ccc(Br)cc4)c3)cc2N1"
-35.1

Write down activity change, negative = cytotoxicity measured for item "COc1ccc(NC(=O)c2nc(S(=O)(=O)Cc3cccc(C)c3)ncc2Cl)c(OC)c1"
-19.7

Read off the recorded activity change, negative = cytotoxicity for "CN(CC(=O)Nc1cccc(S(=O)(=O)N2CCOCC2)c1)CC(=O)Nc1ccc(Cl)c(C(F)(F)F)c1"
-15.1
